Value source: ChEMBL document CHEMBL5291721

# AC50 per entry
# target-or-test-system: Type-1 angiotensin II receptor (Homo sapiens); also: assay procedure not described here
# Sequence (P30556 whole entry): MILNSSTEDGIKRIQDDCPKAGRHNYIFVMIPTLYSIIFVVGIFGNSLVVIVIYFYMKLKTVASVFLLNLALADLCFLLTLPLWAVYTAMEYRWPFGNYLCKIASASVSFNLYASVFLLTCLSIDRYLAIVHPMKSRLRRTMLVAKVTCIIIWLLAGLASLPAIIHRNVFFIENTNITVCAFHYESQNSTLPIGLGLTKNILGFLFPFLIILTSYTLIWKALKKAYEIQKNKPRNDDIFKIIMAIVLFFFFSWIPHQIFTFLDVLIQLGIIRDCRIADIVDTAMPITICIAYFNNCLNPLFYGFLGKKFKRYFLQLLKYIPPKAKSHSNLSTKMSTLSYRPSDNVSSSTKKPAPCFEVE

[
  {
    "molecule": "C=CCc1ccccc1OCC(O)CNC(C)C (configuration not stated) [ALPRENOLOL]",
    "AC50": "> 30 µM"
  },
  {
    "molecule": "CN(C)/N=N/c1[nH]cnc1C(N)=O [DACARBAZINE]",
    "AC50": "> 10 µM"
  },
  {
    "molecule": "Nc1nc(NC2CC2)c2ncn([C@H]3C=C[C@@H](CO)C3)c2n1 [ABACAVIR]",
    "AC50": "> 30 µM"
  },
  {
    "molecule": "Cc1ccc(S(=O)(=O)NC(=O)NN2CC3CCCC3C2)cc1 (configuration not stated) [GLICLAZIDE]",
    "AC50": "> 10 µM"
  },
  {
    "molecule": "C[C@H](N)[C@H](O)c1cccc(O)c1 [METARAMINOL]",
    "AC50": "> 10 µM"
  },
  {
    "molecule": "CC(C)C[C@H]1C(=O)N2CCC[C@H]2[C@]2(O)O[C@](NC(=O)[C@@H]3C=C4c5cccc6[nH]c(Br)c(c56)C[C@H]4N(C)C3)(C(C)C)C(=O)N12 [BROMOCRIPTINE]",
    "AC50": "> 30 µM"
  },
  {
    "molecule": "CN1C(=O)CCS(=O)(=O)C1c1ccc(Cl)cc1 (configuration not stated) [CHLORMEZANONE]",
    "AC50": "> 10 µM"
  }
]

###

# target-or-test-system: UniProtKB Q12809
# Sequence (Q12809 whole entry): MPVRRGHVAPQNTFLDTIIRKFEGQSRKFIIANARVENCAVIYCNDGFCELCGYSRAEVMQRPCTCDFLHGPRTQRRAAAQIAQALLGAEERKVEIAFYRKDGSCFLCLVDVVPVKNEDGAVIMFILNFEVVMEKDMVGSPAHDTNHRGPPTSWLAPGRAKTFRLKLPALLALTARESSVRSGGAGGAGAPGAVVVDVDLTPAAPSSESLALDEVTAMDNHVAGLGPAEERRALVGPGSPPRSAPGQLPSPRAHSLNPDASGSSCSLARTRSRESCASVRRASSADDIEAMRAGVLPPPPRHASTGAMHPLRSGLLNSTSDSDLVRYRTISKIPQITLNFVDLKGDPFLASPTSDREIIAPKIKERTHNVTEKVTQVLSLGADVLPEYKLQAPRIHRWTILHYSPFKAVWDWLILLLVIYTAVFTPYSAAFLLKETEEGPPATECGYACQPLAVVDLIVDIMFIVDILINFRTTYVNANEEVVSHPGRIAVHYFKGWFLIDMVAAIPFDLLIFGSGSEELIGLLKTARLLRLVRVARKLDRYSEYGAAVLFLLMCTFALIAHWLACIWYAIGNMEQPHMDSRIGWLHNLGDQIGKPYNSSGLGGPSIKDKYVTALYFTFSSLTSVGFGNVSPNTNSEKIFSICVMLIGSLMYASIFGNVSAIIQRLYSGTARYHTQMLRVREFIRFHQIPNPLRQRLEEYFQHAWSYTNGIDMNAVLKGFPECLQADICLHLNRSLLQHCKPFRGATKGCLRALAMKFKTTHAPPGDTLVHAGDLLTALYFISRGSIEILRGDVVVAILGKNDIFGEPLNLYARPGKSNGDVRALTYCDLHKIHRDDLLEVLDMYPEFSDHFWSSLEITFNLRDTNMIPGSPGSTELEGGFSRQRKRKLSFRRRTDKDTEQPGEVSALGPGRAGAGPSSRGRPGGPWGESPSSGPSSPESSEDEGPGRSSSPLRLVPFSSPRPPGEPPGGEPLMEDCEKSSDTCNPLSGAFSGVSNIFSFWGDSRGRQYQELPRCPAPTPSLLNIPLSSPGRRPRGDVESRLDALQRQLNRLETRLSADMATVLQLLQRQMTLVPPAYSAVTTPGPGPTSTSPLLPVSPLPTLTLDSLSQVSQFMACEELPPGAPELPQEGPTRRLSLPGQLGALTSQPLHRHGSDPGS
# Type: functional
# stated-conditions: read-out: AC50; also: assay procedure not described here
# key: entry, value: AC50

[
  {
    "compound": "CC[C@@H]1C(=O)OC[C@@H]1Cc1cncn1C",
    "AC50": "> 30 µM"
  },
  {
    "compound": "CCCCc1ncc(/C=C(\\Cc2cccs2)C(=O)O)n1Cc1ccc(C(=O)O)cc1",
    "AC50": "> 30 µM"
  },
  {
    "compound": "O=C(O)c1cc(O)ccc1O",
    "AC50": "> 30 µM"
  },
  {
    "compound": "O=C(O)CCCCCCCC(=O)O",
    "AC50": "> 30 µM"
  },
  {
    "compound": "NCC[C@H](O)C(=O)N[C@@H]1C[C@H](N)[C@@H](O[C@H]2O[C@H](CN)[C@@H](O)[C@H](O)[C@H]2O)[C@H](O)[C@H]1O[C@H]1O[C@H](CO)[C@@H](O)[C@H](N)[C@H]1O",
    "AC50": "> 30 µM"
  },
  {
    "compound": "O=C(CCNNC(=O)c1ccncc1)NCc1ccccc1 [NIALAMIDE]",
    "AC50": "> 30 µM"
  },
  {
    "compound": "CCC(C)(C)c1ccc(CC(C)CN2C[C@@H](C)O[C@@H](C)C2)cc1 (some centres not stated)",
    "AC50": "11 µM"
  },
  {
    "compound": "CCOC(=O)[C@H](CCc1ccccc1)N[C@@H](C)C(=O)N1C(=O)N(C)C[C@H]1C(=O)O",
    "AC50": "> 30 µM"
  },
  {
    "compound": "Cc1cc(NS(=O)(=O)c2ccc(N)cc2)nc(C)n1",
    "AC50": "> 30 µM"
  },
  {
    "compound": "OC(CCN1CCCCC1)(c1ccccc1)c1ccccc1",
    "AC50": "8.8 µM"
  },
  {
    "compound": "N[C@H](C(=O)O)[C@H](O)c1ccc(O)c(O)c1",
    "AC50": "> 30 µM"
  },
  {
    "compound": "CN(C)S(=O)(=O)c1ccc2c(c1)N(CCCN1CCC(CCO)CC1)c1ccccc1S2",
    "AC50": "0.39 µM"
  },
  {
    "compound": "C[C@]12CC[C@@H]3c4ccc(O)cc4CC[C@H]3[C@@H]1C[C@@H](O)[C@@H]2O",
    "AC50": "> 30 µM"
  },
  {
    "compound": "CCC(C(=O)O)c1ccc(N2Cc3ccccc3C2=O)cc1 (configuration not stated)",
    "AC50": "> 30 µM"
  },
  {
    "compound": "CCOC(=O)OC(C)OC1=C(C(=O)Nc2ccccn2)N(C)S(=O)(=O)c2ccccc21 (configuration not stated)",
    "AC50": "> 30 µM"
  },
  {
    "compound": "CO[C@]12C[C@@H](COC(=O)c3cncc(Br)c3)CN(C)[C@@H]1Cc1cn(C)c3cccc2c13",
    "AC50": "0.13 µM"
  },
  {
    "compound": "COc1cc2nc(N3CCN(C(=O)c4ccco4)CC3)nc(N)c2cc1OC",
    "AC50": "3.73 µM"
  }
]

###

Below are AC50 values measured for Melanocortin receptor 4 (Homo sapiens, UniProt P32245).
measured-endpoint: AC50

[
  {
    "compound": "C[C@]12CCC(=O)C=C1CC[C@@H]1[C@@H]2[C@@H](O)C[C@@]2(C)[C@H]1CC[C@]2(O)C(=O)CO [HYDROCORTISONE]",
    "measured-endpoint": "AC50",
    "result": "> 30 µM"
  },
  {
    "compound": "O=C(O)CCCCCCCC(=O)O [AZELAIC ACID]",
    "measured-endpoint": "AC50",
    "result": "> 10 µM"
  },
  {
    "compound": "O=[N+]([O-])O[C@@H]1CO[C@H]2[C@@H]1OC[C@@H]2O [ISOSORBIDE MONONITRATE]",
    "measured-endpoint": "AC50",
    "result": "> 30 µM"
  },
  {
    "compound": "CCOc1ccccc1OCC1CNCCO1 (centres undefined) [VILOXAZINE]",
    "measured-endpoint": "AC50",
    "result": "> 30 µM"
  },
  {
    "compound": "C[C@H]1COc2c(C3(N)CC3)c(F)cc3c(=O)c(C(=O)O)cn1c23 [PAZUFLOXACIN]",
    "measured-endpoint": "AC50",
    "result": "> 10 µM"
  },
  {
    "compound": "O=[N+]([O-])c1cn2c(n1)OC[C@@H](OCc1ccc(OC(F)(F)F)cc1)C2 [PRETOMANID]",
    "measured-endpoint": "AC50",
    "result": "> 30 µM"
  },
  {
    "compound": "COc1ccc(CCNCC(O)COc2cccc(C)c2)cc1OC (centres undefined) [BEVANTOLOL]",
    "measured-endpoint": "AC50",
    "result": "> 10 µM"
  },
  {
    "compound": "C#C[C@]1(O)CC[C@H]2[C@@H]3CCC4=Cc5oncc5C[C@]4(C)[C@H]3CC[C@@]21C [DANAZOL]",
    "measured-endpoint": "AC50",
    "result": "> 10 µM"
  },
  {
    "compound": "N#Cc1ccc([C@H]2CCc3cncn32)c(F)c1 [OSILODROSTAT]",
    "measured-endpoint": "AC50",
    "result": "> 10 µM"
  },
  {
    "compound": "O=C(NCCN1CCOCC1)c1ccc(Cl)cc1 [MOCLOBEMIDE]",
    "measured-endpoint": "AC50",
    "result": "> 10 µM"
  },
  {
    "compound": "CCCCc1ncc(/C=C(\\Cc2cccs2)C(=O)O)n1Cc1ccc(C(=O)O)cc1 [EPROSARTAN]",
    "measured-endpoint": "AC50",
    "result": "> 10 µM"
  },
  {
    "compound": "Nc1ccn([C@H]2CC[C@@H](CO)O2)c(=O)n1 [ZALCITABINE]",
    "measured-endpoint": "AC50",
    "result": "> 10 µM"
  },
  {
    "compound": "CC1=C(C(=O)O)N2C(=O)[C@@H](NC(=O)[C@H](N)c3ccccc3)[C@H]2SC1 [CEPHALEXIN ANHYDROUS]",
    "measured-endpoint": "AC50",
    "result": "> 30 µM"
  },
  {
    "compound": "CCOC(=O)[C@H](CCc1ccccc1)N[C@@H](C)C(=O)N1[C@H](C(=O)O)C[C@@H]2CCC[C@@H]21",
    "measured-endpoint": "AC50",
    "result": "> 30 µM"
  }
]

###

# target-or-test-system: Cholecystokinin receptor type A (Homo sapiens); also: assay procedure not described here
# Sequence (P32238 whole entry): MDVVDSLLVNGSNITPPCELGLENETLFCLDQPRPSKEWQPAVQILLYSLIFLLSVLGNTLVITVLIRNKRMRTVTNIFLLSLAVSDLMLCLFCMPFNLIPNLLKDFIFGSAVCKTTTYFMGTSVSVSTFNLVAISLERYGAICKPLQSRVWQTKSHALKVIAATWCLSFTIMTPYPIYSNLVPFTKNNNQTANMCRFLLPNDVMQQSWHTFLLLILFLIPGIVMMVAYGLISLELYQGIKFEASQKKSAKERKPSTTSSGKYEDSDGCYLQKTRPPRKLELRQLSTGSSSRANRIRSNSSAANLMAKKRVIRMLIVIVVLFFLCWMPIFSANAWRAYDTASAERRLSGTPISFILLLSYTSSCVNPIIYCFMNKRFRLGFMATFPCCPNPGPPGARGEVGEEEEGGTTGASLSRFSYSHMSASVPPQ
Catalogue of molecules with associated AC50

[
  {
    "molecule": "Cc1cn([C@H]2C[C@H](N=[N+]=[N-])[C@@H](CO)O2)c(=O)[nH]c1=O",
    "AC50": "> 30 µM"
  },
  {
    "molecule": "CCCCN1C[C@H](O)[C@@H](O)[C@H](O)[C@H]1CO",
    "AC50": "> 30 µM"
  },
  {
    "molecule": "CC(C)(C)C(=O)Oc1ccc(S(=O)(=O)Nc2ccccc2C(=O)NCC(=O)O)cc1",
    "AC50": "> 30 µM"
  },
  {
    "molecule": "CO[C@@H]1[C@@H](O[C@@H]2O[C@H](C)[C@@H](O[C@H]3C[C@@](C)(O)[C@@H](OC(=O)CC(C)C)[C@H](C)O3)[C@H](N(C)C)[C@H]2O)[C@@H](CC=O)C[C@@H](C)[C@@H](O)/C=C/C=C/C[C@@H](C)OC(=O)C[C@H]1OC(C)=O",
    "AC50": "> 10 µM"
  },
  {
    "molecule": "CCCC(C)C1(CC)C(=O)NC(=O)NC1=O (stereo not drawn)",
    "AC50": "> 10 µM"
  },
  {
    "molecule": "Nc1nc(NC2CC2)c2ncn([C@H]3C=C[C@@H](CO)C3)c2n1",
    "AC50": "> 30 µM"
  },
  {
    "molecule": "COc1ccccc1N1CCN(CCCNc2cc(=O)n(C)c(=O)n2C)CC1",
    "AC50": "> 30 µM"
  },
  {
    "molecule": "COc1cc2c(N)nc(N3CCN(C(=O)OCC(C)(C)O)CC3)nc2c(OC)c1OC",
    "AC50": "> 30 µM"
  },
  {
    "molecule": "COc1cccc(C2(O)CCCCC2CN(C)C)c1 (stereo not drawn)",
    "AC50": "> 30 µM"
  },
  {
    "molecule": "O=C(O)C1=C(CSc2nnnn2CS(=O)(=O)O)CS[C@@H]2[C@H](NC(=O)[C@H](O)c3ccccc3)C(=O)N12",
    "AC50": "> 30 µM"
  },
  {
    "molecule": "COC(=O)C1=C(C)NC(C)=C(C(=O)OC(C)(C)CN(C)CCC(c2ccccc2)c2ccccc2)C1c1cccc([N+](=O)[O-])c1 (stereo not drawn)",
    "AC50": "> 30 µM"
  },
  {
    "molecule": "CCCC(=O)O[C@]1(C(=O)CO)CC[C@H]2[C@@H]3CCC4=CC(=O)CC[C@]4(C)[C@H]3[C@@H](O)C[C@@]21C [HYDROCORTISONE BUTYRATE]",
    "AC50": "> 10 µM"
  },
  {
    "molecule": "CN(C)CCC=C1c2ccccc2C(C)(C)c2ccccc21",
    "AC50": "> 30 µM"
  },
  {
    "molecule": "Nc1nc(N)nc(-c2cc(Cl)ccc2Cl)n1",
    "AC50": "> 30 µM"
  },
  {
    "molecule": "O=C(O)/C=C/c1ccc(Cn2ccnc2)cc1",
    "AC50": "> 30 µM"
  },
  {
    "molecule": "CC[C@@H](C(N)=O)N1CCCC1=O",
    "AC50": "> 30 µM"
  },
  {
    "molecule": "O=C(O[C@H]1C[C@H]2CC[C@@H](C1)[N+]21CCCC1)C(O)(c1ccccc1)c1ccccc1",
    "AC50": "> 30 µM"
  },
  {
    "molecule": "Cc1cccc(Nc2ccccc2C(=O)O)c1C",
    "AC50": "> 10 µM"
  },
  {
    "molecule": "Cc1cc(O)c(C(=O)N[C@@H](C(=O)N[C@@H]2C(=O)N3C(C(=O)O)=C(CSc4nnnn4C)CS[C@H]23)c2ccc(O)cc2)cn1 [CEFPIRAMIDE]",
    "AC50": "> 30 µM"
  },
  {
    "molecule": "OC(CNCC(O)C1CCc2cc(F)ccc2O1)C1CCc2cc(F)ccc2O1 (stereo not drawn)",
    "AC50": "> 30 µM"
  },
  {
    "molecule": "C[C@H]1CNCCc2ccc(Cl)cc21",
    "AC50": "> 30 µM"
  },
  {
    "molecule": "C[C@H](CSC(=O)c1ccccc1)C(=O)N1C[C@@H](Sc2ccccc2)C[C@H]1C(=O)O",
    "AC50": "> 10 µM"
  },
  {
    "molecule": "CC(=O)OCC(=O)[C@@]12N=C(C)O[C@@H]1C[C@H]1[C@@H]3CCC4=CC(=O)C=C[C@]4(C)[C@H]3[C@@H](O)C[C@@]12C",
    "AC50": "> 30 µM"
  },
  {
    "molecule": "COc1ccc(CCN(C)CCCC(C#N)(c2cc(OC)c(OC)c(OC)c2)C(C)C)cc1OC (stereo not drawn)",
    "AC50": "> 30 µM"
  },
  {
    "molecule": "CC(C)C[C@H]1C(=O)N2CCC[C@H]2[C@]2(O)O[C@](NC(=O)[C@@H]3C=C4c5cccc6[nH]c(Br)c(c56)C[C@H]4N(C)C3)(C(C)C)C(=O)N12",
    "AC50": "> 30 µM"
  },
  {
    "molecule": "Cc1ccc(-n2nccn2)c(C(=O)N2CCN(c3nc4cc(Cl)ccc4o3)CC[C@H]2C)c1",
    "AC50": "> 30 µM"
  },
  {
    "molecule": "Cc1nc([N+](=O)[O-])cn1-c1ccc([N+](=O)[O-])cc1",
    "AC50": "> 30 µM"
  },
  {
    "molecule": "COc1cc(NC(C)CCCN)c2ncccc2c1 (stereo not drawn)",
    "AC50": "> 30 µM"
  }
]
